Hello, the source for this data is the supplement of paper PMC10567573, in case you need it.

Assignment: determine reported protein stability index for the given variants.
B1: FAM98B (parent)
chain: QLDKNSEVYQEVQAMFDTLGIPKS

Variants of: B1
MEASUREMENT DESCRIPTION: protein stability index of a GFP-peptide fusion (GPS, HEK-293T) (PSI 1-6); higher = more stable;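 further: lentivirally expressed fusions sorted by FACS into six bins by GFP to DsRed ratio, PSI derived from sequencing read proportions per bin multiplied by bin number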
CONDITION INFO: c terminus: a fixed tail appended
Quick one: just the number, no unit, thanks!

stdin: Request the reported protein stability index associated with E7L
stdout: 3.05

stdin: Request the reported protein stability index associated with S24K
stdout: 2.96

stdin: Request the reported protein stability index associated with V12Y
stdout: 2.56

stdin: Request the reported protein stability index associated with I21K
stdout: 3.58

stdin: Request the reported protein stability index associated with S24N
stdout: 3.56

stdin: Request the reported protein stability index associated with P22M
stdout: 3.37

stdin: Request the reported protein stability index associated with E7H
stdout: 2.51

stdin: Request the reported protein stability index associated with F16K
stdout: 4.07

stdin: Request the reported protein stability index associated with M15R
stdout: 3.34

stdin: Request the reported protein stability index associated with Q1T
stdout: 3.18

stdin: Request the reported protein stability index associated with D17A
stdout: 2.92

stdin: Request the reported protein stability index associated with V8K
stdout: 3.07

stdin: Request the reported protein stability index associated with E7Y
stdout: 2.26

stdin: Request the reported protein stability index associated with K23E
stdout: 4.21

stdin: Request the reported protein stability index associated with P22D
stdout: 4.05

stdin: Request the reported protein stability index associated with V12L
stdout: 3.1

stdin: Request the reported protein stability index associated with T18I
stdout: 2.79

stdin: Request the reported protein stability index associated with N5V
stdout: 3.99

stdin: Request the reported protein stability index associated with N5I
stdout: 2.88

stdin: Request the reported protein stability index associated with K4I
stdout: 2.56

stdin: Request the reported protein stability index associated with F16R
stdout: 2.92

stdin: Request the reported protein stability index associated with V12K
stdout: 3.22
